Hey, just so you know, these numbers are from patent US6914045B2.

Test system: Escherichia coli
Experiment: in vitro antibacterial evaluation, MIC by broth dilution
Assay type: cell-based
Conditions: strain ATCC 25922, 18 hours at 35° C.
Assignment: determine reported MIC Escherichia coli (ATCC 25922) for the given compounds.

| COMPOUND | SYSTEM NAME | MEASURED PROPERTY | ENDPOINT VALUE |
| --- | --- | --- | --- |
| CC(c1ccccc1)C1NC(=O)CNC(=O)C(CO)NC(=O)C(C(O)C2CNC(=N)N2C2OC(CO)C(O)C(O)C2O)NC(=O)C(C(O)C2CNC(=N)N2)NC(=O)C(Cc2ccc(OC3OC(CO)C(OC4OC5COC(c6ccc7c(c6)OCCO7)OC5C(O)C4O)C(O)C3O)cc2)NC1=O (stereo not drawn) | Escherichia coli | MIC Escherichia coli (ATCC 25922) | >64 µg/mL |
| CC(c1ccccc1)C1NC(=O)CNC(=O)C(CO)NC(=O)C(C(O)C2CNC(=N)N2C2OC(CO)C(O)C(O)C2O)NC(=O)C(C(O)C2CNC(=N)N2)NC(=O)C(Cc2ccc(OC3OC(CO)C(OC4OC5COC(c6ccc(-c7ccc(Cl)cc7)cc6)OC5C(O)C4O)C(O)C3O)cc2)NC1=O (stereo not drawn) | Escherichia coli | MIC Escherichia coli (ATCC 25922) | >64 µg/mL |
| CC(c1ccccc1)C1NC(=O)CNC(=O)C(CO)NC(=O)C(C(O)C2CNC(=N)N2C2OC(CO)C(O)C(O)C2O)NC(=O)C(C(O)C2CNC(=N)N2)NC(=O)C(Cc2ccc(OC3OC(CO)C(OC4OC5COC(c6ccc(-c7ccsc7)cc6)OC5C(O)C4O)C(O)C3O)cc2)NC1=O (stereo not drawn) | Escherichia coli | MIC Escherichia coli (ATCC 25922) | >64 µg/mL |
| CC(c1ccccc1)C1NC(=O)CNC(=O)C(CO)NC(=O)C(C(O)C2CNC(=N)N2C2OC(CO)C(O)C(O)C2O)NC(=O)C(C(O)C2CNC(=N)N2)NC(=O)C(Cc2ccc(OC3OC(CO)C(OC4OC5COC(c6ccc(C(=O)c7ccccc7)cc6)OC5C(O)C4O)C(O)C3O)cc2)NC1=O (stereo not drawn) | Escherichia coli | MIC Escherichia coli (ATCC 25922) | 32 µg/mL |
| Cc1ccc(Oc2ccc(C3OCC4OC(OC5C(CO)OC(Oc6ccc(CC7NC(=O)C(C(C)c8ccccc8)NC(=O)CNC(=O)C(CO)NC(=O)C(C(O)C8CNC(=N)N8C8OC(CO)C(O)C(O)C8O)NC(=O)C(C(O)C8CNC(=N)N8)NC7=O)cc6)C(O)C5O)C(O)C(O)C4O3)cc2)cc1 (stereo not drawn) | Escherichia coli | MIC Escherichia coli (ATCC 25922) | >64 µg/mL |

Now turn to the next compound.
Query :: Query MIC Escherichia coli (ATCC 25922) on Escherichia coli for CC(c1ccccc1)C1NC(=O)CNC(=O)C(CO)NC(=O)C(C(O)C2CNC(=N)N2C2OC(CO)C(O)C(O)C2O)NC(=O)C(C(O)C2CNC(=N)N2)NC(=O)C(Cc2ccc(OC3OC(CO)C(OC4OC5COC(c6ccc(C=Cc7ccccc7)cc6)OC5C(O)C4O)C(O)C3O)cc2)NC1=O (stereo not drawn)
Result :: >64 µg/mL

====

Tested on: Streptococcus sp.
Test: in vitro antibacterial evaluation, MIC by broth dilution
Assay type: cell-based
Details: broth dilution, 18 hours at 35° C.
Assignment: determine reported MIC Streptococcus pneumoniae (ATCC 6301) for the given compounds.
One number for each entry, in µg/mL.

Answered cases to consult:
| COMPOUND | ENDPOINT VALUE |
| --- | --- |
| CC(c1ccccc1)C1NC(=O)CNC(=O)C(CO)NC(=O)C(C(O)C2CNC(=N)N2C2OC(CO)C(O)C(O)C2O)NC(=O)C(C(O)C2CNC(=N)N2)NC(=O)C(Cc2ccc(OC3OC(CO)C(OC4OC5COC(C)(c6ccc(F)cc6)OC5C(O)C4O)C(O)C3O)cc2)NC1=O (stereo not shown) | 0.25 |
| COc1ccc(COCC2OC(OC3C(CO)OC(Oc4ccc(CC5NC(=O)C(C(C)c6ccccc6)NC(=O)CNC(=O)C(CO)NC(=O)C(C(O)C6CNC(=N)N6C6OC(CO)C(O)C(O)C6O)NC(=O)C(C(O)C6CNC(=N)N6)NC5=O)cc4)C(O)C3O)C(O)C(O)C2O)cc1 (stereo not shown) | 0.5 |

Now turn to the next compound.
Query :: So what's the measured MIC Streptococcus pneumoniae (ATCC 6301) for this one? COc1ccc2cc(COC3C(OC4C(CO)OC(Oc5ccc(CC6NC(=O)C(C(C)c7ccccc7)NC(=O)CNC(=O)C(CO)NC(=O)C(CC7CNC(=N)N7C7OC(CO)C(O)C(O)C7O)NC(=O)C(CC7CNC(=N)N7)NC6=O)cc5)C(O)C4O)OC(CO)C(O)C3O)ccc2c1 (stereo not shown) [Example 245c]
Result :: 64
